# Test system: HeLa S-3 human cervical carcinoma cell line
# PROTOCOL DETAILS: HeLa GI50 determination (SRB)
# Format: cell-based
# TEST CONDITIONS: Homo sapiens, HeLa S3, 48 h; HeLa S-3, 2 days of treatment, SRB; read-out: HeLa Cells GI50
// assign y if GI50 falls strictly below 30 nM, else n (ties count as n)

Illustrative cases are given below, each with its answer.
>  <COMPOUND>
CCC1=C[C@H]2CN(C1)Cc1c([nH]c3ccc(C(C)=O)cc13)[C@@](C(=O)OC)(c1cc3c(cc1OC)N(C)[C@H]1[C@@](O)(C(=O)OC)[C@H](OC(C)=O)C4C(CC)=CCN5CC[C@]31[C@H]45)C2 (stereo partly drawn)

>  <EXPERIMENTAL TARGET>
HeLa S-3 human cervical carcinoma cell line

>  <LABEL>
y

$$$$
>  <COMPOUND>
CCC1=C[C@H]2CN(C1)Cc1c([nH]c3ccc(SC)cc13)[C@@](C(=O)OC)(c1cc3c(cc1OC)N(C)[C@H]1[C@@](O)(C(=O)OC)[C@H](OC(C)=O)C4C(CC)=CCN5CC[C@]31[C@H]45)C2 (stereo partly drawn)

>  <EXPERIMENTAL TARGET>
HeLa S-3 human cervical carcinoma cell line

>  <LABEL>
y

$$$$

stdin: Is it true that GI50 reported for C#Cc1ccc2[nH]c3c(c2c1)CN1CC(CC)=C[C@@H](C1)C[C@]3(C(=O)OC)c1cc2c(cc1OC)N(C)[C@H]1[C@@](O)(C(=O)OC)[C@H](OC(C)=O)C3C(CC)=CCN4CC[C@]21[C@H]34 (stereo partly drawn) is less than 30 nM?
stdout: y

stdin: State whether 30 nM exceeds GI50 recorded for CCC1=C[C@H]2CN(C1)Cc1c([nH]c3ccc(I)cc13)[C@@](C(=O)OC)(c1cc3c(cc1OC)N(C)[C@H]1[C@@](O)(C(=O)OC)[C@H](OC(C)=O)C4C(CC)=CCN5CC[C@]31[C@H]45)C2 (stereo partly drawn) .
stdout: y
